Reference source: ChEMBL document CHEMBL3988442

- System: Mycobacterium tuberculosis
- Assay: Cornell M. t heat shock assay; also: in the data most compounds retested in dose-response had high values
- Assay type: functional, organism-based
- Design: dose or concentration left out as unconfirmed
The whole screen tested about 69,000 compounds, of which about 950 (1.4%) showed an effect of 50% or more. This is one part of a sample in which strong results are shown more often than they occur.
Measured Parameter: Percent Effect (%)
A number alone suffices; assume %.

> print(dat)
                                   compound  measured.parameter  meas.value
1  Cc1nc(C2CCCN2Cc2cc(Cl)c3c(c2)OCCCO3)no1 (stereo not given)      Percent Effect       45.55

Lookup: Bench note: what Percent Effect did Fc1ccc(CNCC2OCCc3cn(CC4CC4)nc32)cc1.O=C(O)C(F)(F)F.O=C(O)C(F)(F)F (stereo not given) show?
Found: 12.69

Lookup: Which Percent Effect is listed for O=C(CCc1ccccc1)C1CCCN(Cc2cncn2C2CC2)C1 (stereo not given) ?
Found: 5.776

Lookup: Consider the compound O=C1CCNc2ccc(F)cc2CN1Cc1ccco1 and give its measured Percent Effect.
Found: 32.83

Lookup: Name the reported Percent Effect value associated with the compound COCCC(=O)N1CCOCC2(CCN(Cc3cccs3)C2)C1.O=C(O)C(F)(F)F (stereo not given)
Found: -16.95

Lookup: GET /values?readout=Percent Effect&item= Cc1nc(C2CCCN2Cc2cc(Cl)c3c(c2)OCO3)no1 (stereo not given)
Found: 23.975

Lookup: Entry CC1(c2ccccc2)CCCN(Cc2cncn2C2CCCC2)C1 (stereo not given) : reported Percent Effect = ?
Found: 105.4

Lookup: # lookup: Percent Effect of CCCN1CCCC2(CCN(Cc3cncn3C3CCCC3)C2)C1=O (stereo not given)
Found: -6.674
